Tested on: Plasmodium falciparum strain K1
Experiment: [3H]-hypoxanthine-inclusion-test, anti-plasmodium activity
Type: cell-based
Conditions: P. falciparum strain K1 (resistant against chloroquine and pyrimethamine), read-out: IC50
Entries and their pIC50 values follow.
# pIC50 is unitless: minus log10 of the molar concentration; print number only

# example entries with known answers
smiles_notation=COc1cc(OC)c2c(C)[n+](-c3ccc(C(F)(F)F)cc3)c(C)cc2c1 parameter=pIC50 observed=6.55
smiles_notation=COc1cc(OC)c2c(C)[n+](-c3ccc(Cl)cc3)c(C)cc2c1 parameter=pIC50 observed=7.25

Let us examine a further case.
Look up Plasmodium falciparum strain K1 data: pIC50 of `COc1cc(OC)c2c(C)[n+](-c3ccc(NC(C)=O)cc3)c(C)cc2c1` , then report it.
6.68

Origin of values: patent US8173673B2
